Test target: PI3Kβ (recombinant truncated form (ΔN1-108) of the human p110β subunit of PI3K) (Homo sapiens, UniProt P42338)
Construct: His6 (N); made in house; host or cells: Spodoptera frugiperda Sf9 insect cells
Sequence (P42338 109-1070): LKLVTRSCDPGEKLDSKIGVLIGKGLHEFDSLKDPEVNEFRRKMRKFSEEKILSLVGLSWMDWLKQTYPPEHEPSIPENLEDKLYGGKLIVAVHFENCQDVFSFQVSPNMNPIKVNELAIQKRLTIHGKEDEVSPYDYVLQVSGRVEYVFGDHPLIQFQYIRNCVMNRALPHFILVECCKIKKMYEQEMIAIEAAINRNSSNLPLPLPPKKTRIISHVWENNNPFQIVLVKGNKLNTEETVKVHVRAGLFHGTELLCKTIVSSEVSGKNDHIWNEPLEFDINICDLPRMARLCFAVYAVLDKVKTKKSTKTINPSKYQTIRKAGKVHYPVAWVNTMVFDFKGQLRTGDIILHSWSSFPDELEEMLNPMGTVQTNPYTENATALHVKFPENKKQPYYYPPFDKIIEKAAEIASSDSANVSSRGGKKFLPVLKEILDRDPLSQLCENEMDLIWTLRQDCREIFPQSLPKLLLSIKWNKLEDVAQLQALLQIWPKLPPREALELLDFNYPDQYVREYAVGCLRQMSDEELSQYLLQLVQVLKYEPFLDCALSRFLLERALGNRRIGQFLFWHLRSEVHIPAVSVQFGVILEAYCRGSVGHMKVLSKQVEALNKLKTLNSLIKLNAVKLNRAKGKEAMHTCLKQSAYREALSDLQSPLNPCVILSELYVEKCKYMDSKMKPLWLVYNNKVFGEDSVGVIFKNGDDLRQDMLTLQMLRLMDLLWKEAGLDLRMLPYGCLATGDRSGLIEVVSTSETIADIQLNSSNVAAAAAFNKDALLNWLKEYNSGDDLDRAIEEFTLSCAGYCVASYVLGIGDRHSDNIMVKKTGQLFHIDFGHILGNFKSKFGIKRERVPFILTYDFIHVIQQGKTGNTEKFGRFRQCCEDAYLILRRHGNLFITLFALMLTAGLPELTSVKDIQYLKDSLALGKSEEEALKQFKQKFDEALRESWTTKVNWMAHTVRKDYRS
Test protocol: Solid-phase lipid kinase assay of PI3Kβ
Assay type: biochemical
Experimental setup: 7.5 ng protein/well, final 10 μM ATP, 2 h at rt
Assay readout: IC50

**Query** Entry CN(C)S(=O)(=O)CCCOc1c(OCCCN2CCOCC2)ccc2c1N=C(NC(=O)c1cccnc1)N1CCN=C21 has what IC50?
**Result** < 0.1 µM

**Query** Entry COc1c(OCCCS(=O)(=O)N2CCOCC2)ccc2c1N=C(NC(=O)c1cnc(N)nc1)N1CCN=C21 has what IC50?
**Result** < 0.1 µM

**Query** Entry Nc1ccc(C(=O)NC2=Nc3cc(OCCCS(=O)(=O)N4CCOCC4)ccc3C3=NCCN23)cn1 has what IC50?
**Result** 0.1 to 3 µM

**Query** Entry COc1c(OCCCS(=O)(=O)N2CCOCC2)ccc2c1N=C(NC(=O)c1cccnc1)N1CCN=C21 has what IC50?
**Result** < 0.1 µM

* * *

What IC50 was measured for each of the following?
Test target: PI3Kβ (recombinant truncated form (ΔN1-108) of the human p110β subunit of PI3K) (Homo sapiens)
Construct: His6 (N)
Test protocol: Solid-phase lipid kinase assay of PI3Kβ
Experimental setup: 7.5 ng protein/well, final 10 μM ATP, 2 h at rt

**Query** Entry O=C(NC1=Nc2c(ccc(OCCCN3CCOCC3)c2OCCCS(=O)(=O)N2CCOCC2)C2=NCCN12)c1cccnc1 has what IC50?
**Result** < 100 nM

**Query** Entry Nc1ncc(C(=O)NC2=Nc3cc(OCCCS(=O)(=O)N4CCOCC4)ccc3C3=NCCN23)cn1 has what IC50?
**Result** < 100 nM

**Query** Entry CCN(CC)S(=O)(=O)CCCOc1ccc2c(c1OC)N=C(NC(=O)c1cccnc1)N1CCN=C21 has what IC50?
**Result** < 100 nM
